Experiment: Plasma clearance in Sprague-Dawley rat at 1 mg/kg, iv or 3 mg/kg via oral gavage by LC-MS/MS analysis
Assay type: ADME, organism-based

{"columns": ["Entry Smiles", "clearance"],
 "data": [
  ["Cn1c2c(c(=O)n(C)c1=O)C(C(F)(F)F)(C(F)(F)F)N=C(c1cccc([N+](=O)[O-])c1)N2", "3.64 mL/min/kg"],
  ["COc1cccc(C2=NC(C(F)(F)F)(C(F)(F)F)c3c(n(-c4ccc(Cl)cc4)c(=O)[nH]c3=O)N2)c1", "36.4 mL/min/kg"],
  ["Cn1c2c(c(=O)n(C)c1=O)C(C(F)(F)F)(C(F)(F)F)NC(c1ccc(Cl)cc1)=N2", "4.79 mL/min/kg"]
]}

* * *

Let's look at some compounds and their measured fraction unbound at 4 h, 5 µM.
Experiment: Fraction unbound in human plasma at 5 uM after 4 hrs by LC-MS/MS based equilibrium dialysis method
Format: ADME, cell-free

{"columns": ["Entry Smiles", "fraction unbound at 4 h, 5 µM"],
 "data": [
  ["COc1cccc(C2=NC(C(F)(F)F)(C(F)(F)F)c3c(n(-c4ccc(Cl)cc4)c(=O)[nH]c3=O)N2)c1", 0.003],
  ["Cn1c2c(c(=O)n(C)c1=O)C(C(F)(F)F)(C(F)(F)F)NC(c1ccc(Cl)cc1)=N2", 0.007],
  ["Cn1c2c(c(=O)n(C)c1=O)C(C(F)(F)F)(C(F)(F)F)N=C(c1cccc([N+](=O)[O-])c1)N2", 0.005]
]}

* * *

Assay: Half life in Sprague-Dawley rat at 1 mg/kg, iv or 3 mg/kg via oral gavage by LC-MS/MS analysis
Format: ADME, organism-based
Conditions: in vivo
Entries and their half-life values follow.

{"columns": ["Entry Smiles", "Unit Abbreviation", "half-life"],
 "data": [
  ["Cn1c2c(c(=O)n(C)c1=O)C(C(F)(F)F)(C(F)(F)F)NC(c1ccc(Cl)cc1)=N2", "h", 9.78],
  ["Cn1c2c(c(=O)n(C)c1=O)C(C(F)(F)F)(C(F)(F)F)N=C(c1cccc([N+](=O)[O-])c1)N2", "h", 0.7],
  ["COc1cccc(C2=NC(C(F)(F)F)(C(F)(F)F)c3c(n(-c4ccc(Cl)cc4)c(=O)[nH]c3=O)N2)c1", "h", 2.42]
]}
